# Procedure Summary: Human HepG2 cell viability assay in 384 well format
# Type: toxicity, cell-based
# Design: dose 125 nL, time 70.5 hour; concentration not given beside the values
# Measurement Setup: HepG2 cells, read-out: Inhibition
cytotoxicity at 70.5 h by entry:
Property: cytotoxicity at 70.5 h (%)

>>> test_result("O=C(O)C(c1cccc2c1OCC2)N1CCC(N2CCCC2)CC1 (stereo unspecified)")
-0.16
>>> test_result("O=C(Nc1ccccn1)N(CCO)Cc1ccccc1Br")
-2.33
>>> test_result("O=C(NCc1ccco1)c1ccc(N2CCOCC2)cc1")
0.191
>>> test_result("CC(C)c1nc2n(n1)CC(NCc1ncc(C(C)(C)C)o1)CC2 (stereo unspecified)")
0.95
>>> test_result("Cc1ccccc1NC(=O)NCCn1nc(C(F)(F)F)n(C)c1=O")
-2.02
>>> test_result("COC(=O)c1ccc(CN2CCC(c3noc(C)n3)CC2)s1")
-8.54

###

# Procedure Summary: Human HepG2 cell viability assay in 384 well format
# Format: toxicity, cell-based
# Parameters: dose 125 nL, time 70.5 hour; concentration not given beside the values
# Measurement Setup: HepG2 cells, read-out: Inhibition
Property: cytotoxicity at 70.5 h (%)

>>> test_result("CC(C(=O)NCc1ccco1)N1CCN(Cc2nccn2C)CC1 (stereo unspecified)")
-5.54
>>> test_result("COc1cccc(-c2n[nH]cc2CNC2CCCN(C)C2)c1 (stereo unspecified)")
-5.83
>>> test_result("CCS(=O)(=O)c1ccc(N2CCC(NC(C)=O)CC2)cc1")
-5.9
>>> test_result("c1cnc2ccc(C[C@@H]3CC[C@H](CN4CCCOCC4)O3)cc2c1")
-10.1
>>> test_result("CSCC(CCO)NC(=O)Nc1ccc(Br)cc1 (stereo unspecified)")
-11.8
>>> test_result("O=C(c1ccco1)N1CC(S(=O)(=O)c2ccc(Cl)cc2)C1")
-10.1
>>> test_result("NC(=O)NC(=O)CCn1ccc(-c2ccccc2)n1")
16
>>> test_result("Cc1csc(CNC(=O)N(C)Cc2ccc([S+](C)[O-])cc2)n1 (stereo unspecified)")
-5.11
>>> test_result("O=C(C1=NN(Cc2ccccc2)c2ccccc2S1(=O)=O)N1CCCC1")
-0.281
>>> test_result("O=C1CCC(c2nc(C3CCN(C(=O)C4CC4)CC3)no2)N1 (stereo unspecified)")
-4.42
>>> test_result("Cc1cc(-c2cnn(CCNC(=O)c3snnc3C)c2C2CC2)on1")
-2.4
>>> test_result("COC1CN(C(=O)CC(C)(C)C)CCC(=O)N(C)c2ccccc21 (stereo unspecified)")
-4.95
>>> test_result("COc1ccc(CC(=O)N2C[C@H]3CN(Cc4ccccn4)C[C@H]3C2)cc1")
-3.26
>>> test_result("Cc1csc(C(C#N)C(=O)Nc2ccccc2)n1 (stereo unspecified)")
-0.341
>>> test_result("CNC(=O)Cc1ccccc1NC(=O)N[C@H]1c2ccccc2C[C@H]1O")
-13.7
>>> test_result("O=C(CCN1CCCC1C1CCCCC1)N1CCc2sccc2C1 (stereo unspecified)")
2.92
>>> test_result("Cc1cc(NC(=O)NCc2cccnc2OC2CCCC2)n(C)n1")
-2.74
>>> test_result("CCc1ccc(NC(=O)N2C[C@H]3C[C@H](C(=O)NC)[C@@H](C2)O3)cc1")
3.53
>>> test_result("COc1ccc2c(c1)CN(Cc1ccco1)C(=O)CCN2")
-10
>>> test_result("Cc1cccnc1CC(C)N(C)C(=O)c1ccoc1C (stereo unspecified)")
5.46
>>> test_result("O=C(Cc1ccsc1)NC1CCc2c(ccc(=O)n2CC2CC2)C1 (stereo unspecified)")
12
>>> test_result("CN(C)c1ncc(NC(=O)N2CCC(CN3CCCC3)C2)cn1 (stereo unspecified)")
0.1
>>> test_result("c1ccc(CN2CCC3(CC2)CCN(c2ccccn2)C3)nc1")
-10.3
>>> test_result("COc1ccccc1NC(=O)Cc1c(C)nc2c(c1C)c(=O)[nH]n2C")
-3.59
>>> test_result("CC(C)CC(=O)N1CC(=O)c2sc(NC3CCCCC3)nc2C1")
1.17
>>> test_result("CNC(=O)[C@@H]1CC[C@@H]2[C@@H](CCN2C(=O)N(C)C)O1")
-0.00257
>>> test_result("CCC1CCCCN1C(=O)CCn1cnc2sccc2c1=O (stereo unspecified)")
-11.1
>>> test_result("Cc1ccc2cc(CNCCCO)c(=O)[nH]c2c1")
-2.37
>>> test_result("Cc1cnn(CC2CCCCN2CCCS(C)(=O)=O)c1 (stereo unspecified)")
-2.88
>>> test_result("CC(C)OCCCNC(=O)CN1C=Nc2ccccc2S1(=O)=O")
-7.79
>>> test_result("CN1[C@H](CN2CCCC2)C[C@@H]2CN(C(=O)c3cnccn3)CC[C@@H]21")
-4.55
>>> test_result("CC(C)Oc1ncccc1CNC(=O)N1CCCC1c1ccsc1 (stereo unspecified)")
-0.144
>>> test_result("CC(C)CN1C(=O)CO[C@@H]2CN(C(=O)C3CCOC3)C[C@H]21 (stereo partly specified)")
39.9
>>> test_result("Cc1ncc(CN(C)CC(O)c2ccc(OC(F)(F)F)cc2)s1 (stereo unspecified)")
-3.36
>>> test_result("c1cncc(CN2CCC(c3n[nH]c(C4CC4)n3)CC2)c1")
33.7
>>> test_result("Nc1nc(Sc2cccs2)cc(N2CC[C@H](CO)[C@H](O)C2)n1")
22.1
>>> test_result("O=C(O)[C@]12CCCN(C3CCOC3)C[C@H]1CN(c1nncs1)C2 (stereo partly specified)")
-7.95
>>> test_result("CCn1cnnc1CNC(=O)N1CCOC(c2ccc(Cl)cc2)C1 (stereo unspecified)")
-13.5
>>> test_result("Cc1cc(CN2CCN(C(=O)NC(C)c3ccncc3)CC2)on1 (stereo unspecified)")
-9.79
>>> test_result("CN1CCN(C(=O)Cc2ccc(F)cc2)Cc2cccnc21")
5.52
>>> test_result("CNC(=O)Cc1ccc(NC(=O)NC2(c3cccc(F)c3)CC2)cc1")
-3.37
>>> test_result("CCc1nccn1C1CCCN(C(=O)Cc2cn3ccsc3n2)C1 (stereo unspecified)")
-11.7
>>> test_result("CS(=O)(=O)N1CCC2(CCN(Cc3nccs3)CC2)CC1")
-0.411
>>> test_result("O=S(=O)(c1ccccc1N1CC(n2cccn2)C1)C(F)(F)F")
1.67
>>> test_result("CC(C)NC(=O)[C@H]1C[C@@H]2CN(C(=O)NCCc3ccccc3)C[C@H]1O2")
8.95
>>> test_result("Cc1cc(NC(=O)N2CCCC2C(C)(C)O)c2ncccc2c1 (stereo unspecified)")
-75.7

###

Overview of recorded cytotoxicity at 70.5 h for various compounds
# Procedure Summary: Human HepG2 cell viability assay in 384 well format
# Type: toxicity, cell-based
# Set-up: dose 125 nL, time 70.5 hour; concentration not given beside the values
# Measurement Setup: HepG2 cells, read-out: Inhibition
Property: cytotoxicity at 70.5 h

>>> test_result("O=C(c1cncc(N2CCC3(CCNCC3)CC2)n1)N1CCCC1")
"12.4%"
>>> test_result("N#Cc1ccc(S(=O)(=O)N2CSCC2C(=O)NCC(F)(F)F)cc1 (stereo unspecified)")
"-5.51%"
>>> test_result("CCCN(CCC)c1ncc(S(=O)(=O)c2ccc(OC)cc2)c(N)n1")
"-9.23%"
>>> test_result("CCSc1cc(C(=O)N(C(C)C)C2CC2)ccn1")
"-3.36%"
>>> test_result("Cn1ccnc1CN1CCC2(CC1)COC2")
"-7.76%"
>>> test_result("Cc1n[nH]c(C)c1CCC(=O)N1CCC(O)(CN2CCOCC2)C1 (stereo unspecified)")
"15.2%"
>>> test_result("COc1ccc(C2(C(=O)NCc3c(C)ncc4c3CCNC4)CC2)cc1")
"-5.87%"
>>> test_result("FC(F)(F)c1cccc(CNc2nccc(C(F)(F)F)n2)c1")
"-3.61%"
>>> test_result("CN(C)C(=O)COC[C@]12COC[C@H]1CN(CCc1ccccc1)C2")
"-1.91%"
>>> test_result("CN(Cc1ccccc1)c1ncccc1CNC(=O)c1ccnn1C")
"-10.4%"
>>> test_result("CC(c1ccon1)N(C)C(=O)C1CCN(CC(N)=O)CC1 (stereo unspecified)")
"18%"

###

# Procedure Summary: Human HepG2 cell viability assay in 384 well format
# Format: toxicity, cell-based
# Parameters: dose 125 nL, time 70.5 hour; concentration not given beside the values
# Measurement Setup: HepG2 cells, read-out: Inhibition
Property: cytotoxicity at 70.5 h (%)

>>> test_result("CCCc1ncc(CN(C)C2CCCN(CCc3ccccc3)C2)cn1 (centres undefined)")
-4.41
>>> test_result("CCOCc1ccccc1NC(=O)NCC(c1cnn(C)c1)N(C)C (centres undefined)")
-5.82
>>> test_result("CCC(=O)Nc1cccc(OCC(=O)N(C)Cc2ccon2)c1")
8.51
>>> test_result("COCCSc1ccc(C(C)NC(=O)Nc2cccnc2)cc1 (centres undefined)")
-4.37
>>> test_result("CCOc1ncccc1CNC(=O)NC(C)Cn1cccn1 (centres undefined)")
25.9
>>> test_result("O=C(O)c1ncccc1OCC(F)(F)F")
-0.00705
>>> test_result("CCN(C1CCN(C(=O)c2cccc(Cl)c2)CC1)S(C)(=O)=O")
-6.65
>>> test_result("COCC1c2c(cnn2CC2CC2)CCN1Cc1ccc(OC)cc1 (centres undefined)")
49.3
>>> test_result("CCC(NC(=O)CC1CCN(CC)CC1)c1cn2cccnc2n1 (centres undefined)")
-5.63
>>> test_result("CCc1nc(CNC(=O)c2ccc(C(C)N3CCCCC3)o2)cc(=O)[nH]1 (centres undefined)")
-6.44
>>> test_result("CC(C)NC(=O)c1cc(-c2ccc(S(C)(=O)=O)cc2)nc2c1cnn2C")
-13.7
>>> test_result("CC(C)n1cc(C(=O)NCC(CO)Cc2cccs2)cn1 (centres undefined)")
-8.73
>>> test_result("CNc1nc(C(=O)N2CCCCC2c2ccc(CN(C)C)cc2)cs1 (centres undefined)")
1.16
>>> test_result("CCOc1ccc(C(=O)CCC(=O)N(C)Cc2nc(C)c[nH]2)cc1C")
-19.8
>>> test_result("CC(C)c1ccc(OCCC(=O)NCCC(=O)N(C)C)cc1")
-8.34
>>> test_result("Cc1c(C)n(Cc2ccccn2)c2nc3c(c(N)c12)CCCCCC3")
22
>>> test_result("CCCC(=O)N(C)CC(=O)Nc1ccc(Br)cn1")
-2.34
>>> test_result("Cc1cc(N2CCN(C(=O)c3cn(C)c4ccccc34)CC2)nc(C)n1")
20.3
>>> test_result("CS(=O)(=O)CCN1CCCC1c1noc(C2CC2)n1 (centres undefined)")
0.883
>>> test_result("COC(C)(C)Cn1ccnc1-c1cccc(C(C)N(C)C)c1 (centres undefined)")
-7.08
>>> test_result("CC(NCCCn1cccn1)c1ccc(N2CCCS2(=O)=O)cc1 (centres undefined)")
-4.88
>>> test_result("O=C(O)C1(Cc2ccccc2F)CCCN(c2ncnc3[nH]ccc23)C1 (centres undefined)")
-0.879
>>> test_result("COCCN1CCOCC12CCN(C(=O)c1c[nH]c3ccccc13)CC2")
-13.9
>>> test_result("CCn1cc2c(n1)CN(S(=O)(=O)Cc1ccccc1)CC2COC (centres undefined)")
11.6
>>> test_result("O=C(O)[C@@H]1CN(C(=O)c2ccc(F)c(F)c2)C[C@H]1c1cccc(F)c1")
-11.2
>>> test_result("CC(c1cccc(-c2ncccc2F)c1)N(C)C (centres undefined)")
-14.8
>>> test_result("O=C(CN1CC(n2cccn2)C1)NCCc1ccc(F)cc1")
-1.33
>>> test_result("COc1cc(OC)nc(N2CCCC(c3nccn3CCN(C)C)C2)n1 (centres undefined)")
30.4
>>> test_result("COCCO[C@@H]1CCN(Cc2csc(C)n2)[C@H]1Cc1ccccc1")
-8.53
>>> test_result("CNS(=O)(=O)c1ccc(CN2CCN3CCNC(=O)C3C2)cc1 (centres undefined)")
-6.1
>>> test_result("Cc1nc(CN2CCCCC2Cn2cncn2)nc2ccccc12 (centres undefined)")
20.9
>>> test_result("CN1C[C@H]2CN(C(=O)c3ccc4c(c3)OCO4)CCN2C1=O")
-8.59
>>> test_result("Cc1ccc2cccc(Oc3nc(C)c(C(=O)O)s3)c2n1")
14.9
>>> test_result("Cc1noc(NC(=O)c2ccccc2)n1")
-5.17
>>> test_result("COCc1c(Br)cccc1NC(=O)N(C)CCO")
-12.1
>>> test_result("COCc1cc(N2CCN(C3CCCCC3)CC2)n2nccc2n1")
-4.81
>>> test_result("CCNC(=O)NC1CN(Cc2ccccc2N(C)C)C[C@@H]1OC (some centres undefined)")
5.63
>>> test_result("CC(C)c1nc(CN2CCCC(O)C2)cs1 (centres undefined)")
13.1
>>> test_result("CC(C)NC1CC2(CCNCC2)c2cc(F)ccc21 (centres undefined)")
-2.34
>>> test_result("CCC(Nc1ccc(CCN2CCOCC2)cc1)C(N)=O (centres undefined)")
-19.6
>>> test_result("Cn1cc(C2CC(=O)NC23CCN(C(=O)c2cccnc2)CC3)cn1 (centres undefined)")
-3.63
>>> test_result("NC(=O)C1CCN(C(=O)NCc2ccc3c(c2)OCCO3)CC1")
-9.87
>>> test_result("Cc1cc(C(=O)N(C)Cc2cccs2)nc(N2CCOCC2)n1")
-0.782
>>> test_result("CC(C)(C)NC(=O)C[C@@H]1CCNC[C@@H]1Cc1cc(C(C)(C)C)on1")
-1.48
>>> test_result("CC(C)CN1CCn2nc(CNc3ncnc4[nH]cnc34)cc2C1")
10.6
>>> test_result("Cc1cccc(-n2cnnc2CCCN2CCOCC2)c1")
-7.97
>>> test_result("COCCNC(=O)NC(C)COc1ccc(F)cc1F (centres undefined)")
-0.107
>>> test_result("O=C(Cn1nc2ccccc2n1)N1CCCC(O)(CO)C1 (centres undefined)")
6.64
>>> test_result("O=C(Nc1ccc(Cl)cn1)c1cncc(C2CCNCC2)n1")
-7.54
